The following binders are listed with their measured Ka values.
biological target: T1, intact von Willebrand factor (UniProt P04275 764-2813, limits assumed); test: binding constant; method not stated in Example 3
T1 construct: also called vWF; intact vWF
Give the quantity in M⁻¹, number only.

For orientation, consider the following solved cases.
GPIbα fusion protein variant 3V (G233V K237V M239V) (Fc fusion, not shown: large carriers) HPICEVSKVASHLEVNCDKRNLTALPPDLPKDTTILHLSENLLYTFSLATLMPYTRLTQLNLDRCELTKLQVDGTLPVLGTLDLSHNQLQSLPLLGQTLPALTVLDVSFNRLTSLPLGALRGLGELQELYLKGNELKTLPPGLLTPTPKLEKLSLANNNLTELPAGLLNGLENLDTLLLQENSLYTIPKGFFGSHLLPFAFLHGNPWLCNCEILYFRRWLQDNAENVYVWKQVVDVVAVTSNVASVQCDNSDKFPVYKYPGKGCPTLGDEGDTDLYDYYPEEDTEGDKVR | 1.7e+09
GPIb-290/2V/FFF-Ig (GPIb-290/2V-Ig with Tyr-276, 278, 279 changed to phenylalanine) (Fc fusion, Non-sulfated chimera; also called GPIbα-290/2V/FFF-Ig; GPIbα-290-2V/FFF-Ig; not shown: human IgG1 Fc domain) HPICEVSKVASHLEVNCDKRNLTALPPDLPKDTTILHLSENLLYTFSLATLMPYTRLTQLNLDRCELTKLQVDGTLPVLGTLDLSHNQLQSLPLLGQTLPALTVLDVSFNRLTSLPLGALRGLGELQELYLKGNELKTLPPGLLTPTPKLEKLSLANNNLTELPAGLLNGLENLDTLLLQENSLYTIPKGFFGSHLLPFAFLHGNPWLCNCEILYFRRWLQDNAENVYVWKQVVDVKAVTSNVASVQCDNSDKFPVYKYPGKGCPTLGDEGDTDLFDFFPEEDTEGDKVR | 2.4e+08
GPIbα fusion protein variant 3V/C65S (Fc fusion, not shown: large carriers, also called 3V/C-S) HPICEVSKVASHLEVNCDKRNLTALPPDLPKDTTILHLSENLLYTFSLATLMPYTRLTQLNLDRSELTKLQVDGTLPVLGTLDLSHNQLQSLPLLGQTLPALTVLDVSFNRLTSLPLGALRGLGELQELYLKGNELKTLPPGLLTPTPKLEKLSLANNNLTELPAGLLNGLENLDTLLLQENSLYTIPKGFFGSHLLPFAFLHGNPWLCNCEILYFRRWLQDNAENVYVWKQVVDVVAVTSNVASVQCDNSDKFPVYKYPGKGCPTLGDEGDTDLYDYYPEEDTEGDKVR | 1.7e+09
GPIb-290/2V-Ig (N-terminal 290 amino acids of GPIbα with G233V M239V fused to a human IgG1 Fc domain) (Fc fusion, sulfated tyrosines at 276, 278, 279 (extent not stated), also called GPIb2V-Ig; GP Ib-Ig2V; not shown: human IgG1 Fc domain) HPICEVSKVASHLEVNCDKRNLTALPPDLPKDTTILHLSENLLYTFSLATLMPYTRLTQLNLDRCELTKLQVDGTLPVLGTLDLSHNQLQSLPLLGQTLPALTVLDVSFNRLTSLPLGALRGLGELQELYLKGNELKTLPPGLLTPTPKLEKLSLANNNLTELPAGLLNGLENLDTLLLQENSLYTIPKGFFGSHLLPFAFLHGNPWLCNCEILYFRRWLQDNAENVYVWKQVVDVKAVTSNVASVQCDNSDKFPVYKYPGKGCPTLGDEGDTDLYDYYPEEDTEGDKVR | 5.6e+08

The record that follows has no Ka shown yet.
Query block: Query Ka for GPIbα-IgG1Fc fusion protein with the M239V (1V) substitution (Fc fusion, tyrosines 276, 278, 279 can be sulfated; sulfation state not stated, also called GP Ibα-Ig239V; not shown: IgG1 Fc) HPICEVSKVASHLEVNCDKRNLTALPPDLPKDTTILHLSENLLYTFSLATLMPYTRLTQLNLDRCELTKLQVDGTLPVLGTLDLSHNQLQSLPLLGQTLPALTVLDVSFNRLTSLPLGALRGLGELQELYLKGNELKTLPPGLLTPTPKLEKLSLANNNLTELPAGLLNGLENLDTLLLQENSLYTIPKGFFGSHLLPFAFLHGNPWLCNCEILYFRRWLQDNAENVYVWKQGVDVKAVTSNVASVQCDNSDKFPVYKYPGKGCPTLGDEGDTDLYDYYPEEDTEGDKVR
Result block: 7.7e+07
